Reference for the values: the NIST ThermoML archive (doi:10.1021/acs.jced.8b00635)

- measurement_protocol: activity coefficient (dimensionless); of the first substance listed, at infinite dilution; xn = mol fraction of the nth substance listed
- assay_setup: 363.15 K; 101.33 kPa; Liquid; Chromatography; x1 = 0
Reported activity coefficient is given for each of the following compounds.
readout_kind: activity coefficient

>>> print(df.to_string())
                                   compound  measurement
0  CCCCc1ccccc1 [butylbenzene] + CCCCC(CC)CN(CC(CC)CCCC)C(=O)C(C)C         12.5
1  CCCCCCCCC [nonane] + CCCCC(CC)CN(CC(CC)CCCC)C(=O)C(C)C          9.8
2  ClC(Cl)Cl [trichloromethane] + CCCCC(CC)CN(CC(CC)CCCC)C(=O)C(C)C        0.463
3  CCCCC [pentane] + CCCCC(CC)CN(CC(CC)CCCC)C(=O)C(C)C        0.382
4  CCCC(C)C [2-methylpentane] + CCCCC(CC)CN(CC(CC)CCCC)C(=O)C(C)C        0.525
5  c1ccccc1 [benzene] + CCCCC(CC)CN(CC(CC)CCCC)C(=O)C(C)C         1.15
6  C1CCCCC1 [cyclohexane] + CCCCC(CC)CN(CC(CC)CCCC)C(=O)C(C)C         1.18
7  CCc1ccccc1 [ethylbenzene] + CCCCC(CC)CN(CC(CC)CCCC)C(=O)C(C)C          3.9
8  C=CCCCC [hex-1-ene] + CCCCC(CC)CN(CC(CC)CCCC)C(=O)C(C)C        0.789
9  Cc1ccccc1 [toluene] + CCCCC(CC)CN(CC(CC)CCCC)C(=O)C(C)C         1.88

###

- measurement_protocol: activity coefficient (dimensionless); of the first substance listed, at infinite dilution; xn = mol fraction of the nth substance listed
- assay_setup: 333.15 K; 101.33 kPa; Liquid; Chromatography; x1 = 0
readout_kind: activity coefficient

                                   compound          readout_kind  measurement
0  CCCCCCCCCCC [undecane] + CCCCC(CC)CN(CC(CC)CCCC)C(=O)C(C)C  activity coefficient         35.9
1  ClC(Cl)Cl [trichloromethane] + CCCCC(CC)CN(CC(CC)CCCC)C(=O)C(C)C  activity coefficient        0.966
2  C=CCCCCCC [oct-1-ene] + CCCCC(CC)CN(CC(CC)CCCC)C(=O)C(C)C  activity coefficient         6.09
3  Cc1ccccc1 [toluene] + CCCCC(CC)CN(CC(CC)CCCC)C(=O)C(C)C  activity coefficient         4.25
